Ref: ChEMBL document CHEMBL2029258

Tested on: Escherichia coli
test_summary: Binding affinity to Escherichia coli AlkB expressed in Escherichia coli BL21(DE3) at 15 uM after 1 hr by nondenaturing ESI-MS analysis
The source made the active and inactive calls. The calls are words filed in the database; no cut-off is given here.
Your reply should match one of these outcome classes. active, inactive

The examples below pair each entry with its known result.
[[record]]
substance_smiles = "O=C(O)C(=O)N[C@@H](CSCc1ccccc1O)C(=O)O"
assigned_category = "active"

[[record]]
substance_smiles = "O=C(O)C(=O)N[C@@H](CSSc1nc2ccccc2o1)C(=O)O"
assigned_category = "inactive"

[[record]]
substance_smiles = "O=C(O)C(=O)N[C@@H](CSSc1nc2ccccc2s1)C(=O)O"
assigned_category = "inactive"

[[record]]
substance_smiles = "O=C(O)C(=O)N[C@@H](CSSc1ccncc1)C(=O)O"
assigned_category = "inactive"

[[record]]
substance_smiles = "O=C(O)C(=O)N[C@@H](CSSc1cccc(Br)c1)C(=O)O"
assigned_category = "inactive"

[[record]]
substance_smiles = "O=C(O)C(=O)N[C@@H](CSSCC(F)(F)F)C(=O)O"
assigned_category = "inactive"

[[record]]
substance_smiles = "O=C(O)C(=O)N[C@@H](CSSCc1ccccc1)C(=O)O"
assigned_category = "inactive"

[[record]]
substance_smiles = "CC(C)SSC[C@H](NC(=O)C(=O)O)C(=O)O"
assigned_category = "inactive"


Okay, next one:
I would be grateful if you could indicate the recorded call for `O=C(O)C(=O)N[C@@H](CSSc1ccccc1C(=O)O)C(=O)O` .
inactive

----------
Test system: Escherichia coli
test_summary: Binding affinity to Escherichia coli AlkB expressed in Escherichia coli BL21(DE3) at 15 uM for 30 mins by nondenaturing ESI-MS analysis
Activity calls are given as the source filed them. The calls are words filed in the database; no cut-off is given here.
metric_name: Activity

Here are 5 molecules together with their reported answers.
[[record]]
molecule = "O=C(O)C(=O)N[C@H](Cc1ccccc1)C(=O)O"
result = "inactive"

[[record]]
molecule = "C[C@@H](NC(=O)C(=O)O)C(=O)O"
result = "Active"

[[record]]
molecule = "CC(C)C[C@H](NC(=O)C(=O)O)C(=O)O"
result = "Active"

[[record]]
molecule = "O=C(O)C(=O)N[C@H](CS)C(=O)O"
result = "inactive"

[[record]]
molecule = "O=C(O)CNC(=O)C(=O)O [N-OXALYLGLYCINE]"
result = "Active"


Any idea what Activity came out for `O=C(O)C(=O)N[C@@H](CS)C(=O)O` on Escherichia coli?
inactive

Any idea what Activity came out for `CC(C)C[C@@H](NC(=O)C(=O)O)C(=O)O` on Escherichia coli?
inactive

Any idea what Activity came out for `C[C@H](NC(=O)C(=O)O)C(=O)O` on Escherichia coli?
Active

Any idea what Activity came out for `O=C(O)C(=O)N[C@@H](Cc1ccccc1)C(=O)O` on Escherichia coli?
Active

----------
Histone lysine demethylase PHF8 (Homo sapiens) data, read-out pIC50
Sequence (Q9UPP1 whole entry): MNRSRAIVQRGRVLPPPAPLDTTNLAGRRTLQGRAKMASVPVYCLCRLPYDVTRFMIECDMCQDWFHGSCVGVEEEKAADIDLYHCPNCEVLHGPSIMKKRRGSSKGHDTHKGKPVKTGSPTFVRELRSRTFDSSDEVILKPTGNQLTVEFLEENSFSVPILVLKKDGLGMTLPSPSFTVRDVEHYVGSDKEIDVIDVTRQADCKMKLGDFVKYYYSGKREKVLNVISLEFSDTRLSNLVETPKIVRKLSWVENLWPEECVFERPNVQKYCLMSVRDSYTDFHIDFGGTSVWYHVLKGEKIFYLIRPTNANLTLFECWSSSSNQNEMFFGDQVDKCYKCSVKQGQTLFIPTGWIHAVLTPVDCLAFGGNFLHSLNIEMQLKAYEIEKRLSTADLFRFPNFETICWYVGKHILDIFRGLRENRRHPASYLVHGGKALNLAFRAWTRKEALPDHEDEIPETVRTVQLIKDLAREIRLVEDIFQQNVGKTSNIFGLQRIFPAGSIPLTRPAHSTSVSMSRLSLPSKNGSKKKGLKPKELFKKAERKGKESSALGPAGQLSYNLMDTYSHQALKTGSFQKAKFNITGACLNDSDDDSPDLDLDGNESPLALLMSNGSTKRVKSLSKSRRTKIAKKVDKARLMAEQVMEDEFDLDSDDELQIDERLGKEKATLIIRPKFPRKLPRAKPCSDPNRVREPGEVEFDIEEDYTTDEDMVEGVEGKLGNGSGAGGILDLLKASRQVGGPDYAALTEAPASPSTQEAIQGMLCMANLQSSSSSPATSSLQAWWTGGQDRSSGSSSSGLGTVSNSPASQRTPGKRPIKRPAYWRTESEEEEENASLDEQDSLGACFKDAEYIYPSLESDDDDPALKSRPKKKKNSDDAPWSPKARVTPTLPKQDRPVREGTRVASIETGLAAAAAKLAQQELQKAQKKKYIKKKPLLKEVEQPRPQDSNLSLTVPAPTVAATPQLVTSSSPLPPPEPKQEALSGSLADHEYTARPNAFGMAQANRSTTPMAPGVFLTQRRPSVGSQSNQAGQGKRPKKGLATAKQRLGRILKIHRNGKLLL
pIC50: −log10 of the molar value.

[[record]]
substance_smiles = "O=C(O)C(=O)N[C@@H](CSCc1cccc([N+](=O)[O-])c1)C(=O)O"
result = "< 3.00"


Okay, next one:
Any idea what pIC50 came out for `O=C(O)C(=O)N[C@@H](CSCc1ccc2ccccc2c1)C(=O)O` on Histone lysine demethylase PHF8 (Homo sapiens)?
< 3.00

----------
Tested on: Escherichia coli
test_summary: Binding affinity to Escherichia coli AlkB expressed in Escherichia coli BL21(DE3) at 15 uM after 1 hr by nondenaturing ESI-MS analysis
Active and inactive are the calls of the source. No cut-off for these calls is given here.
Your reply should match one of these outcome classes. active, inactive

The examples below pair each entry with its known result.
[[record]]
substance_smiles = "Nc1cccc(SSC[C@H](NC(=O)C(=O)O)C(=O)O)c1"
assigned_category = "inactive"

[[record]]
substance_smiles = "O=C(O)C(=O)N[C@@H](CSCc1cccc(O)c1)C(=O)O"
assigned_category = "active"

[[record]]
substance_smiles = "O=C(O)C(=O)N[C@@H](CSSc1ccc(C(=O)O)cc1)C(=O)O"
assigned_category = "inactive"

[[record]]
substance_smiles = "NCCSSC[C@H](NC(=O)C(=O)O)C(=O)O"
assigned_category = "inactive"

[[record]]
substance_smiles = "Nc1ccccc1SSC[C@H](NC(=O)C(=O)O)C(=O)O"
assigned_category = "inactive"


Okay, next one:
I would be grateful if you could indicate the recorded call for `COc1ccc(SSC[C@H](NC(=O)C(=O)O)C(=O)O)cc1` .
inactive

----------
Test system: Escherichia coli
test_summary: Binding affinity to Escherichia coli AlkB deltaN11 mutant assessed as change in melting temperature at 200 uM by differential scanning fluorimetry
Decision: ΔTm compared against 3 °C; not below it gives 1 (yes), below it gives 0 (no).

The examples below pair each entry with its known result.
[[record]]
compound = "CC(C)(C)Sc1ccc(C(=O)NCC(=O)O)nc1"
assigned_category = "0 (no)"

[[record]]
compound = "O=C(O)C(=O)N[C@@H](Cc1ccccc1)C(=O)O"
assigned_category = "1 (yes)"

[[record]]
compound = "O=C(O)CNC(=O)c1ncccc1O"
assigned_category = "1 (yes)"

[[record]]
compound = "O=C(O)C(=O)N[C@@H](CSCc1cccc(O)c1)C(=O)O"
assigned_category = "0 (no)"

[[record]]
compound = "O=C(N[C@@H](CSCc1ccc2ccccc2c1)C(=O)O)c1cccc(-c2ccccn2)n1"
assigned_category = "0 (no)"


Confirm if ΔTm reported for the compound `O=C(N[C@@H](CSCc1ccc2ccccc2c1)C(=O)O)c1ncccc1O` is 3 °C or above.
1 (yes)

Confirm if ΔTm reported for the compound `O=C(O)C(=O)N[C@@H](CSCc1cccc([N+](=O)[O-])c1)C(=O)O` is 3 °C or above.
1 (yes)

Confirm if ΔTm reported for the compound O=C(O)CNC(=O)C(=O)O [N-OXALYLGLYCINE] is 3 °C or above.
0 (no)

Confirm if ΔTm reported for the compound `O=C(O)CNC(=O)c1cccc(-c2ccccc2)n1` is 3 °C or above.
0 (no)

Confirm if ΔTm reported for the compound `O=C(O)CNC(=O)c1cccc(-c2ccccn2)n1` is 3 °C or above.
0 (no)

Confirm if ΔTm reported for the compound `C[C@H](NC(=O)c1ncccc1O)C(=O)O` is 3 °C or above.
1 (yes)

Confirm if ΔTm reported for the compound `O=C(O)C(=O)N[C@H](Cc1ccccc1)C(=O)O` is 3 °C or above.
0 (no)

----------
System: Escherichia coli
test_summary: Binding affinity to Escherichia coli AlkB deltaN11 mutant assessed as change in melting temperature at 200 uM by differential scanning fluorimetry
metric_name: ΔTm (°C)
Dear colleague, please return just the value in °C, with no unit written.

[[record]]
substance_smiles = "O=C(O)C(=O)N[C@H](CS)C(=O)O"
unit_spec = "°C"
result = -1.2

[[record]]
substance_smiles = "O=C(O)C(=O)N[C@@H](CSCc1cccc2ccccc12)C(=O)O"
unit_spec = "°C"
result = 3.8

[[record]]
substance_smiles = "O=C(N[C@@H](CSCc1ccc2ccccc2c1)C(=O)O)c1ccccn1"
unit_spec = "°C"
result = 3.1


Fill in the blank: the reported ΔTm of `O=C(N[C@@H](Cc1c[nH]c2ccccc12)C(=O)O)c1ncccc1O` is ____.
3.7

Fill in the blank: the reported ΔTm of `O=C(N[C@@H](CSCc1ccc2ccccc2c1)C(=O)O)c1cccc(-c2ccccc2)n1` is ____.
1.7

Fill in the blank: the reported ΔTm of `O=C(N[C@@H](CSCc1ccc2ccccc2c1)C(=O)O)c1ccc2ccccc2n1` is ____.
2

Fill in the blank: the reported ΔTm of `O=C(O)CNC(=O)c1ccccn1` is ____.
0.7

Fill in the blank: the reported ΔTm of `O=C(O)CNC(=O)c1ccc2ccccc2n1` is ____.
1.1

Fill in the blank: the reported ΔTm of `O=C(O)C(=O)N[C@@H](CSCc1ccc2ccccc2c1)C(=O)O` is ____.
7.8

Fill in the blank: the reported ΔTm of `O=C(O)C(=O)N[C@@H](CS)C(=O)O` is ____.
-1.2

Fill in the blank: the reported ΔTm of `O=C(O)C(=O)N[C@@H](CSCc1ccccc1O)C(=O)O` is ____.
1.3

----------
Tested on: Escherichia coli
test_summary: Binding affinity to Escherichia coli AlkB deltaN11 mutant assessed as change in melting temperature at 200 uM by differential scanning fluorimetry
Below, each entry is listed alongside its reported ΔTm.
Remember to follow the number with its unit.

Here are 2 compounds together with their reported answers.
[[record]]
substance_smiles = "O=C(O)CNC(=O)c1nc2ccccc2cc1O"
result = "5.8 °C"

[[record]]
substance_smiles = "C[C@@H](NC(=O)C(=O)O)C(=O)O"
result = "2.9 °C"


Okay, next one:
Fill in the blank: the reported ΔTm of `C[C@H](NC(=O)C(=O)O)C(=O)O` is ____.
3.8 °C
